test system: MDA-N; assay: NCI tumour cell line growth inhibition, 48 h
Calls of active or inactive are those of the source. Cut-off read from the data, not from the text of the source: active = GI50 up to about 1.1 µM and inactive = higher.
observedProperty: GI50

Recorded GI50, per entry:
NCCSc1nc2ccccc2s1 ... 38.3 µM (inactive)
C#C[C@]1(O)CC[C@H]2[C@@H]3CCC4=C/C(=N/NC(=O)c5cccc6cc7ccccc7nc56)CC[C@@H]4[C@H]3CC[C@@]21CC ... 93.3 µM (inactive)
O=C(NCCCNCCN1C(=O)c2cccc3cc([N+](=O)[O-])cc(c23)C1=O)c1cc(-c2ccccc2)nc2ccccc12 ... 1.53 µM (inactive)
COC(OC)C1(c2ccccc2)Oc2ccccc2C1=O (centres undefined) ... > 100 µM (inactive)
C#C[C@]1(O)CC[C@H]2[C@@H]3CCC4=C/C(=N\OCCN(CC)CC)CC[C@]4(C)[C@H]3CC[C@@]21C ... 2.18 µM (inactive)

Query: Look up GI50: COC(=O)Nc1nc2cc(S(=O)(=O)n3nnc4ccccc43)ccc2[nH]1
Reply: > 100 µM (inactive)

Query: Ok, now O=C(c1ccc(Cl)cc1Cl)N(Cc1cccnc1)C(=S)N(Cc1cccnc1)C(=O)c1ccc(Cl)cc1Cl
Reply: 2.31 µM (inactive)

Query: Ok, now CCN(CC)CCOCCn1c2c(c3ccccc31)CCCC2
Reply: 17.2 µM (inactive)

Query: Ok, now COC(=O)/C=C1/OC(c2ccccc2)=C(Br)C1=O
Reply: 42.1 µM (inactive)

All figures here come from ChEMBL document CHEMBL1201862.
